- SYSTEM_TESTED: SARS-CoV-2-S1 (RBD)-His protein (Trenzyme) (SARS-CoV-2, UniProt P0DTC2 319-541)
- PROTOCOL_DETAILS: iQue flow cytometry, antigen-coated beads
ASSAY_METRIC: EC50 (nM)
One number for each entry, in nM.

A selection of reference data follows.
input: For the binder NI-607.274_E5 (antibody, V domains shown) VH: EVQLVESGGGMVQPGRSLRLSCAGSGFTFSTHGMHWVRQAPGKGLEWITGITYDGSDEFYADSVKGRFTIARDNSKNMLYLQMNSLRAEDTAVYFCAKDLEWLTNYVDHWGQGTLVTVSS VL: DIVMTQSPGTLSVSPGERATLSCRASQSVNYNLAWYQQKPGQAPRLLIFDASTRATGIPARFTGSGSGTEFTLTISSLQSEDFAVYYCQQSNAWLTFGGGTKLEIK , what EC50 is on record?
output: 0.39

input: For the binder NI-607.791_B10 (antibody, V domains shown) VH: QVQLQQWGAGLLKPSETLSRTCAVYGGSFSDYYWSWIRQPPGKGLEWIGEVNHRGVTNYNPSLKSRVTISIDTSKSQFSLELRSVTDADTALYFCARSPFWTIAARPFDYWGRGTLVTVSS VL: EIVMTQSPGTLSLSPGERATLSCRASQSVISNYLAWYQQKPGQAPRFLIYAASTRARGIPDRFSGSGSGTDFTLTISRLEAEDFAVYYCQQYGNSPLTFGGGTKLEIK , what EC50 is on record?
output: 13.7

For every listed record, write down its EC50.
1. NI-607.531_E7 (antibody, V domains shown, also called F31 E7) VH: EVQLVESGGGVVQPGRSLRLSCAASGFTFNFYSMHWVRQVPGKGLEWVAVISFDGSTKHYAESLRGRFAVSRDNSKSTLYLQMNSLRPEDTAVYYCASPPLSPIPAAGTPLDYWGQGTLVTVSS VL: EIVMTQSPDSLAVSLGERATINCKSSQSIFYRSDDKDFLAWYQQKPGQPPKLLISWASTRESGVPDRFSGSGSGTDFTLTISSLQAEDVAVYYCQQFYYTPFTFGPGTKLEIK
2. NI-607.529_G4 (antibody, V domains shown) VH: QVQLQQWGAGLLKPSETLSLTCAVYGGSFSGYYWSWIRQPPGKGLEWIGEINHSGSTNYNPSLKSRVTISVDTSKNQFSLKLSSVTAADTAVYYCARASLYYSDSSGYSHPYYFDYWGQGTLVTVSS VL: QPVLTQPPSVSGAPGQRVTISCTGSSSNIGAGYDVHWYQQLPGTAPKLLIYGNSNRPSGVPDRFSGSKSGMSASLAITGLQAEDEADYYCQSYDSSLSGWVFGGGTKLTVL
3. NI-607.761_B7 (antibody, V domains shown) VH: EVQLVESGGGVVQPGRSLRLSCAASGFTFTRYGMHWVRQAPGKGLEWVAVIWYDGNNKNYEDSVRGRFTISRDNSKNTLFLQMNSLRAEDTAVYYCARGRRGGYSYGLFDYWGQGILVTVSS VL: AIRMTQSPSSLSASVGDRVTITCQASQDISNYLNWYQQKPGKAPKLLIYDASNLETGVPSRFSGSGSGTDFTFTISSLQPEDVATYSCQQYDNLPLTFGGGTKVEIK

output:
1. 1.3
2. 1.3
3. 0.44
